The reported numbers originate from patent US11464770B2.

- Tested on: colorectal cancer cell lines (e.g. DLD-1, HCT 116, SW620, HCT-15, HCT-8, RKO)
- test_summary: Cell based assay, cell viability (CellTiter-Glo), colorectal cancer cell lines
- applied_conditions: Homo sapiens, HT-29 cells, 72 hours treatment, read-out: IC50, colorectal cancer cell line HT-29
pIC50: −log10 of the molar value.
result_type: pIC50

Asked: Looking for the measured pIC50 of CC(C)C(=O)c1c([S+]([O-])Cc2ccc(SC(F)(F)F)cc2)[nH]c2c(F)ccc(F)c2c1=O (centres unmarked) , can you help?
Given back: < 5.00

Asked: Looking for the measured pIC50 of Cc1cc(C[S+]([O-])c2[nH]c3c(Cl)ccc(Cl)c3c(=O)c2C(=O)c2ccccc2)no1 (centres unmarked) , can you help?
Given back: < 5.00

Asked: Looking for the measured pIC50 of CC(=O)c1c([S+]([O-])Cc2ccc(C(F)(F)F)nc2C)[nH]c2c(Br)ccc(Cl)c2c1=O (centres unmarked) , can you help?
Given back: < 5.00

Asked: Looking for the measured pIC50 of O=C(c1ccccc1)c1c([S+]([O-])Cc2ccc(S(F)(F)(F)(F)F)cc2)[nH]c2c(F)ccc(F)c2c1=O (centres unmarked) , can you help?
Given back: < 5.00

Asked: Looking for the measured pIC50 of COc1cccc2[nH]c(SCc3ccc(S(F)(F)(F)(F)F)cc3)c(C(C)=O)c(=O)c12 , can you help?
Given back: < 5.00

Asked: Looking for the measured pIC50 of CC(=O)c1c([S+]([O-])Cc2ccc(Cl)nc2)[nH]c2c(Br)ccc(Cl)c2c1=O (centres unmarked) , can you help?
Given back: < 5.00

Asked: Looking for the measured pIC50 of Cc1cc(C[S+]([O-])c2[nH]c3c(Br)ccc(Cl)c3c(=O)c2C(=O)C(C)C)no1 (centres unmarked) , can you help?
Given back: < 5.00

Asked: Looking for the measured pIC50 of CC(=O)c1c([S+]([O-])CN2C(=O)c3ccccc3C2=O)[nH]c2c(Cl)ccc(Cl)c2c1=O (centres unmarked) , can you help?
Given back: < 5.00
